Below: a set of entries, each annotated with reported pIC50.
- Test system: A549 (NSCLC) cells
- protocol details: Anti-proliferative activity, Cell-Titre luminescent viability assay
- Assay type: cell-based
- condition details: Homo sapiens, 72 h exposure, Cell-Titre luminescent reagent
Quick note: pIC50 means taking -log10 of the concentration in moles per liter.

molecule	tgt	pIC50
CCCc1ccc(NC(=O)c2ccn(S(=O)(=O)c3ccc4[nH]ccc4c3)n2)cc1F	A549 (NSCLC) cells	5.09
O=C(Nc1ccc(C(F)(F)F)cc1)C1CCN(S(=O)(=O)c2ccc3c(c2)CCN3)CC1	A549 (NSCLC) cells	4.40
O=C(Nc1ccc(Cl)c(Cl)c1)c1ccn(S(=O)(=O)c2ccc3[nH]ccc3c2)c1	A549 (NSCLC) cells	5.03
CCC(C)c1ccc(NC(=O)C2CCN(S(=O)(=O)c3ccc4c(c3)CCN4)CC2)cc1 (centres unmarked)	A549 (NSCLC) cells	4.70
O=C(Nc1cc(F)cc(F)c1)c1ccn(S(=O)(=O)c2ccc3[nH]ccc3c2)c1	A549 (NSCLC) cells	4.88

Endpoint output: pIC50 of `CCCc1ccc(NC(=O)c2ccn(S(=O)(=O)c3ccc4[nH]ccc4c3)c2)cc1F` . Value?
4.97

* * *

Reported IC50 values follow for various compounds
- Tested on: SK-N-SH neuroblastoma cells
- protocol details: Cytotoxicity assay, MTS viability
- Format: cell-based
- condition details: Homo sapiens, 72 hours
Give the quantity in µM, number only.

Known IC50 results, listed for orientation:
compound	data value
O=C(Nc1ccc(C(F)(F)F)cc1)N1CCN(S(=O)(=O)c2ccc3c(c2)CCN3)CC1 [Compound 14]	26.6
Cc1ccccc1NC(=O)c1ccn(S(=O)(=O)c2ccc3[nH]ccc3c2)c1 [Compound 45]	27

What is its IC50 for SK-N-SH neuroblastoma cells? Entry: CCC(C)c1ccc(NC(=O)c2ccn(S(=O)(=O)c3ccc4[nH]c(C)c(C)c4c3)c2)cc1 (stereo not drawn) [Compound 59]
10.3

* * *

- Tested on: SK-N-SH neuroblastoma cells
- protocol details: Cytotoxicity assay, MTS viability
- Assay type: cell-based
- condition details: Homo sapiens, 72 hours
measurement kind: IC50 (µM)
The reply should contain only the number, in µM.

Solved cases (4 shown):
molecule	IC50 / µM
O=C(Nc1ccccc1F)c1ccn(S(=O)(=O)c2ccc3[nH]ccc3c2)c1 [Compound 50]	11.5
O=C(Nc1ccc(Cl)c(Cl)c1)c1ccn(S(=O)(=O)c2ccc3[nH]ccc3c2)c1 [Compound 71]	8.9
CCC(C)c1ccc(NC(=O)c2ccn(S(=O)(=O)c3cnc4[nH]ccc4c3)c2)cc1 (centres unmarked) [Compound 60]	13.2
O=C(Nc1cccc(C(F)(F)F)c1)c1ccn(S(=O)(=O)c2ccc3[nH]ccc3c2)c1 [Compound 46]	14.7

May I ask what IC50 has been recorded for CCC(C)c1ccc(NC(=O)C2CCN(S(=O)(=O)c3ccc4cc[nH]c4n3)CC2)cc1 (centres unmarked) [Compound 65] ?
12.5

Queued: O=C(Nc1ccc(F)cc1)c1ccn(S(=O)(=O)c2ccc3[nH]ccc3c2)c1 [Compound 48]
7.56

Another molecule: Cc1cccc(NC(=O)c2ccn(S(=O)(=O)c3ccc4[nH]ccc4c3)c2)c1 [Compound 44]
15.2

Further, for CC(C)(C)c1ccc(NC(=O)c2ccn(S(=O)(=O)c3ccc4[nH]ccc4c3)n2)cc1 [Compound 113] ?
9.41

* * *

- Test system: A549 (NSCLC) cells
- protocol details: Anti-proliferative activity, Cell-Titre luminescent viability assay
- Format: cell-based
- condition details: Homo sapiens, 72 h exposure, Cell-Titre luminescent reagent
- Experimental: The ability of compounds of the disclosure to inhibit the proliferation of cancer cells representative of non-small cell lung cancer and ovarian cancer (Table 1), and pancreatic cancer, colorectal cancer and prostate cancer (Table 2) was assessed. […] Luminescence was captured using an EnVision multilabel reader and the data for each analogue concentration compared against no treatment control. […]
# IC50 values compiled below
I only need the number, in µM, no unit after it.

compound	tgt	IC50 (µM)
CC(C)(C)c1ccc(S(=O)(=O)n2ccc(C(=O)Nc3ccc(C(F)(F)F)cc3)c2)cc1	A549 (NSCLC) cells	12.8
CCC(C)c1cccc(NC(=O)c2ccn(S(=O)(=O)c3ccc4[nH]ccc4c3)c2)c1 (stereo not shown)	A549 (NSCLC) cells	3.6
CCC(C)c1ccc(NC(=O)c2ccn(S(=O)(=O)c3cnc4[nH]ccc4c3)c2)cc1 (stereo not shown)	A549 (NSCLC) cells	3.9
CCC(C)c1ccc(NC(=O)C2CCN(S(=O)(=O)c3ccc4cc[nH]c4c3)CC2)cc1 (stereo not shown)	A549 (NSCLC) cells	14
O=C(Nc1ccc(F)c(F)c1)c1ccn(S(=O)(=O)c2ccc3[nH]ccc3c2)n1	A549 (NSCLC) cells	4.84
CCc1ccc(NC(=O)c2ccn(S(=O)(=O)c3ccc4[nH]ccc4c3)c2)cc1	A549 (NSCLC) cells	11.3
O=C(Nc1ccc(C(F)(F)F)cc1)N1CCN(S(=O)(=O)c2ccc3[nH]ccc3c2)CC1	A549 (NSCLC) cells	6.5
CC(C)Cc1ccc(NC(=O)c2ccn(S(=O)(=O)c3ccc4[nH]ccc4c3)n2)cc1F	A549 (NSCLC) cells	5.11

Notebook: pull reported IC50 for A549 (NSCLC) cells, entry `O=C(Nc1ccccc1C(F)(F)F)c1ccn(S(=O)(=O)c2ccc3[nH]ccc3c2)c1`
2.3

Next: `Cc1ccc(NC(=O)c2ccn(S(=O)(=O)c3ccc4[nH]ccc4c3)c2)cc1`
18

Please give the result for CCC(C)c1ccc(NC(=O)C2CCN(S(=O)(=O)c3ccn(C)c3)CC2)cc1 (stereo not shown) too.
13

Follow-up item: `CC(C)c1ccc(NC(=O)c2ccn(S(=O)(=O)c3ccc4[nH]ccc4c3)c2)cc1`
5.8

Next compound up: CCC(C)c1ccc(CCC2CCN(S(=O)(=O)c3cc(C(N)=O)n(C)c3)CC2)cc1 (stereo not shown)
3.2

What do you have for `O=C(Nc1cccc(C(F)(F)F)c1)c1ccn(S(=O)(=O)c2ccc3[nH]ccc3c2)c1` ?
7.7

* * *

Measured pIC50, listed per entry.
- Tested on: A549 (NSCLC) cells
- protocol details: Anti-proliferative activity, Cell-Titre luminescent viability assay
- Type: cell-based
- condition details: Homo sapiens, 72 h exposure, Cell-Titre luminescent reagent
Hey, just a heads up that pIC50 is the negative log base 10 of the concentration in molar.

Example entries and their recorded answers appear below.
molecule	data value
CCC(C)c1ccc(NC(=O)c2ccn(S(=O)(=O)c3ccc4[nH]c(C)cc4c3)c2)cc1 (stereo not shown)	5.41
CC(C)c1ccc(NC(=O)c2ccn(S(=O)(=O)c3ccc4[nH]ccc4c3)n2)cc1F	5.39

Read the next record carefully.
Could you share which pIC50 value was measured for `CCCc1ccc(NC(=O)c2ccn(S(=O)(=O)c3ccc4[nH]ccc4c3)n2)cc1` ?
5.26

* * *

- Tested on: SK-N-SH neuroblastoma cells
- protocol details: Cytotoxicity assay, MTS viability
- Assay type: cell-based
- condition details: Homo sapiens, 72 hours
measurement kind: IC50 (µM)
Report as a plain number; the unit µM is understood.

Study these solved cases before continuing.
molecule	measure unit	data value
O=C(Nc1ccc(C(F)(F)F)cc1)c1ccn(S(=O)(=O)c2ccc3[nH]ccc3c2)c1	µM	7.87
O=C(Nc1ccc(C(F)(F)F)cc1)C1CCN(S(=O)(=O)c2ccc3c(c2)CCN3)CC1	µM	27.4
O=C(Nc1ccc(F)c(F)c1)c1ccn(S(=O)(=O)c2ccc3[nH]ccc3c2)c1	µM	19.1
CCC(C)c1ccc(NC(=O)c2ccn(S(=O)(=O)c3ccc4[nH]c(C)cc4c3)c2)cc1 (stereo not shown)	µM	7.22

IC50 of `O=C(Nc1ccc(C(F)(F)F)cc1)c1ccn(S(=O)(=O)c2ccc3c(c2)CCN3)c1` on SK-N-SH neuroblastoma cells?
12.8

Item: `O=C(Nc1ccc(Cl)c(F)c1)c1ccn(S(=O)(=O)c2ccc3[nH]ccc3c2)c1`
17.3

Same for CCC(C)c1ccccc1NC(=O)c1ccn(S(=O)(=O)c2ccc3[nH]ccc3c2)c1 (stereo not shown)
22.2

Entry `CCc1cccc(NC(=O)c2ccn(S(=O)(=O)c3ccc4[nH]ccc4c3)c2)c1` please
16.2

Likewise for `CC(C)(C)c1ccc(NC(=O)c2ccn(S(=O)(=O)c3ccc4[nH]ccc4c3)c2)cc1` ?
7.51

* * *

IC50 for assorted compounds
- System: A549 (NSCLC) cells
- protocol details: Anti-proliferative activity, Cell-Titre luminescent viability assay
- Assay type: cell-based
- condition details: Homo sapiens, 72 h exposure, Cell-Titre luminescent reagent

# count of solved cases: 6
compound	tgt	IC50
Cc1ccc(NC(=O)C2CCN(S(=O)(=O)c3ccc4c(c3)CCN4)CC2)cc1O	A549 (NSCLC) cells	> 100 µM
O=C(Nc1ccc(F)cc1)c1ccn(S(=O)(=O)c2ccc3[nH]ccc3c2)n1	A549 (NSCLC) cells	> 30 µM
CCC(C)c1ccc(NCC2CCN(S(=O)(=O)c3cc(C(N)=O)n(C)c3)CC2)cc1 (stereo not shown)	A549 (NSCLC) cells	> 100 µM
CCC(C)c1ccc(CCNC(=O)c2ccn(S(=O)(=O)c3ccc(C(C)(C)C)cc3)c2)cc1 (stereo not shown)	A549 (NSCLC) cells	> 30 µM
COc1ccc(NC(=O)c2ccn(S(=O)(=O)c3ccc4[nH]ccc4c3)c2)cc1F	A549 (NSCLC) cells	> 30 µM
CNC(=O)C1CCN(S(=O)(=O)c2cc(C(N)=O)n(C)c2)CC1	A549 (NSCLC) cells	> 100 µM

Continue with the compound presented below.
Could you tell me which IC50 is on file for `O=C(Nc1ccc2c(c1)OCO2)c1ccn(S(=O)(=O)c2ccc3[nH]ccc3c2)n1` ?
> 30 µM
